Target: human glucagon receptor (human, UniProt P47871 26-477)
Assay: cell-based or functional assay
Non-standard residues stand in square brackets, D forms with d. No end group written: not given here. Bip(2'-Et-4'-OMe) = CCc1cc(OC)ccc1-c1ccc(C[C@H](N)C(=O)O)cc1; αMePhe(2-F) = C[C@](N)(Cc1ccccc1F)C(=O)O; hhPhe = N[C@@H](CCCc1ccccc1)C(=O)O; aThr = C[C@H](O)[C@H](N)C(=O)O; CNB = not defined here; Aib = CC(C)(N)C(=O)O
Quick list: inhibition of cAMP production, 100 nM per entry.

{"binder": "H[Aib][CNB]G[aThr][αMePhe(2-F)]TSD[Bip(2'-Et-4'-OMe)][hhPhe] (reading uncertain) [Seq. ID. No. 110: H-Aib-(CNB)-G-T(allo)-(α-Me-2F-Phe)-TSD-Bip(OMe)-(APPA)]", "inhibition of cAMP production, 100 nM": "12 pmol/ml/µg prt"}
{"binder": "Ac-H[Aib]QG[aThr][αMePhe(2-F)][aThr]SD[Bip(2'-Et-4'-OMe)][hhPhe] (also: reduced (CH2) bonds between 9-10 and 10-11) [Seq. ID. No. 197: CH3CO-H-Aib-QG-T(allo)-(α-Me-2F-Phe)-T(allo)-SD-(CH2)-Bip(OMe)-(CH2)-(APPA)]", "inhibition of cAMP production, 100 nM": "7 pmol/ml/µg prt"}
